Test system: NOMO1
Test: cell viability relative to DMSO control; higher = less cytotoxic
Details: HPLM + 10% dialyzed FBS; 48 h; 1.71 µM
READOUT LABEL: cell viability
Write the numeric value and follow it with the unit.

Here is how some molecules turned out for cell viability.
• C[C@@H](CN1CC(=O)NC(=O)C1)N1CC(=O)NC(=O)C1 = 22.3%
• O=P(O)(O)C(O)(Cn1ccnc1)P(=O)(O)O = 139%
• Oc1nc(-c2ccc(C(F)(F)F)cc2)nc2c1CSCC2 = 98.4%
• Cc1ccnc2c1NC(=O)c1cccnc1N2C1CC1 = 89.7%

Exam item: Find cell viability (NOMO1) for the entry "CC(C)OC(=O)[C@H](C)N[P@](=O)(OC[C@H]1O[C@@H](N2\C=C/C(=O)NC2=O)[C@](C)(F)[C@@H]1O)OC3=CC=CC=C3"
Marked response: 91%

====

Test system: P12-Ichikawa
Assay: cell viability relative to DMSO control; higher = less cytotoxic
Settings: HPLM + 10% dialyzed FBS; 48 h; 0.569 µM
READOUT LABEL: cell viability (%)
Supply the numeric figure in %, leaving out any unit text.

Here is how some compounds turned out for cell viability.
- CC12CC3CC(C)(C1)CC(N)(C3)C2: 124
- C[C@@H](CN1CC(=O)NC(=O)C1)N1CC(=O)NC(=O)C1: 47
- O=C(O)c1cc(/N=N/c2ccc([S+](=O)([O-])Nc3ccccn3)cc2)ccc1O: 116
- COc1ccc(C(=O)c2c(C)n(CCN3CCOCC3)c3cc(I)ccc23)cc1: 119
- Cc1cccc(Nc2ccncc2[S+](=O)([O-])NC(=O)NC(C)C)c1: 93
- N[C@@H]1CONC1=O: 109

Exam item: Give the measured cell viability of "Nc1ncnc2c1ncn2[C@@H]1O[C@H](CO)C[C@H]1O" .
Marked response: 93.1

Exam item: Give the measured cell viability of "COC1=C(OCCCN2CCOCC2)C=CC\3=C1/N=C(/NC(=O)C4=CN=C(N)N=C4)N5CC/N=C35" .
Marked response: 78.2

====

Test system: NOMO1
Assay: cell viability relative to DMSO control; higher = less cytotoxic
Settings: RPMI 5 mM glucose + 10% FBS; 48 h; 1.71 µM
In this section we review reported cell viability values for a set of compounds.
Supply the numeric figure in %, leaving out any unit text.

Here is how some compounds turned out for cell viability.
* OCC(O)C(O)C(O)CO (stereo unspecified) | 85.8
* COC1=CC=C(C(=C1)OC(C)C)C/2=N/[C@@H]([C@@H](N2C(=O)N3CCNC(=O)C3)C4=CC=C(Cl)C=C4)C5=CC=C(Cl)C=C5 | 103
* CN1CCCN(CC1)C2=CC=C3C(=O)\C(=C/4SC5=C(C=CC=C5)N4C3=N2)C(=O)NCC6=CN=C(C)C=N6 | 105

Exam item: Give the measured cell viability of "CCc1ccc(/C=C2/SC(=S)NC2=O)cc1" .
Marked response: 76.3

Exam item: Give the measured cell viability of CC(C(=O)O)c1ccc2c(c1)CC(=O)c1ccccc1S2 (stereo unspecified) .
Marked response: 103

Exam item: Give the measured cell viability of O=C(c1ccccc1)c1ccc2n1CCC2C(=O)O (stereo unspecified) .
Marked response: 110

====

Test system: P12-Ichikawa
Test: cell viability relative to DMSO control; higher = less cytotoxic
Details: RPMI 5 mM glucose + 10% FBS; 48 h; 46.1 µM
READOUT LABEL: cell viability (%)
Supply the numeric figure in %, leaving out any unit text.

• O=C(O)c1cc(/N=N/c2ccc([S+](=O)([O-])Nc3ccccn3)cc2)ccc1O = 108
• O=C(O)c1cccnc1Nc1cccc(C(F)(F)F)c1 = 108
• Cc1ccnc2c1NC(=O)c1cccnc1N2C1CC1 = 96.5
• CN(C)CC(C)(C)CNc1nn2c(-c3ccccc3)nnc2cc1C1CCC1 = 6.32

Then this compound:
Exam item: Give the measured cell viability of COc1ccc2c(c1)[C@]13CCCCC1C(C2)N(C)CC3 (stereo not given in full) .
Marked response: 107

# credit: the supplement of paper PMC11451515
